Test system: SD rats
Test: Test Example 1: genital organ weights after ethynylestradiol dosing for 2 weeks
Type: in vivo, rat
Details: ethynylestradiol 3 mg/kg orally once daily for 2 weeks, n = 8
Protocol: SD rats aged 11 weeks (in groups of 8) were orally dosed with 3 mg/kg of the endocrine disturbing chemical ethynylestradiol suspended in 0.5% sodium carboxymethylcellulose (CMC) solution (ethynylestradiol 0.6 mg/mL) or, as control, 5 mL/kg of 0.5% CMC solution once daily in the morning for 2 weeks, and after the administration course, the testis, epididymis, prostate and seminal vesicle were respectively weighed. […]
Result Type: Seminal vesicle weight (mg/100 g body weight)

compound="C#C[C@]1(O)CC[C@H]2[C@@H]3CCc4cc(O)ccc4[C@H]3CC[C@@]21C [Ethynylestradiol, ethynylestradiol]" assay_value=88.1

* * *

Tested on: SD rats
Experiment: Test Example 1: genital organ weights after ethynylestradiol dosing for 2 weeks
Type: in vivo, rat
Conditions: ethynylestradiol 3 mg/kg orally once daily for 2 weeks, n = 8
Result Type: Epididymis weight (mg/100 g body weight)

smiles_repr=C#C[C@]1(O)CC[C@H]2[C@@H]3CCc4cc(O)ccc4[C@H]3CC[C@@]21C result_type="Epididymis weight" assay_value=118
